Measurement target: G551D-CFTR (Homo sapiens, UniProt P13569, G551D)
Sequence (P13569 whole entry G551D): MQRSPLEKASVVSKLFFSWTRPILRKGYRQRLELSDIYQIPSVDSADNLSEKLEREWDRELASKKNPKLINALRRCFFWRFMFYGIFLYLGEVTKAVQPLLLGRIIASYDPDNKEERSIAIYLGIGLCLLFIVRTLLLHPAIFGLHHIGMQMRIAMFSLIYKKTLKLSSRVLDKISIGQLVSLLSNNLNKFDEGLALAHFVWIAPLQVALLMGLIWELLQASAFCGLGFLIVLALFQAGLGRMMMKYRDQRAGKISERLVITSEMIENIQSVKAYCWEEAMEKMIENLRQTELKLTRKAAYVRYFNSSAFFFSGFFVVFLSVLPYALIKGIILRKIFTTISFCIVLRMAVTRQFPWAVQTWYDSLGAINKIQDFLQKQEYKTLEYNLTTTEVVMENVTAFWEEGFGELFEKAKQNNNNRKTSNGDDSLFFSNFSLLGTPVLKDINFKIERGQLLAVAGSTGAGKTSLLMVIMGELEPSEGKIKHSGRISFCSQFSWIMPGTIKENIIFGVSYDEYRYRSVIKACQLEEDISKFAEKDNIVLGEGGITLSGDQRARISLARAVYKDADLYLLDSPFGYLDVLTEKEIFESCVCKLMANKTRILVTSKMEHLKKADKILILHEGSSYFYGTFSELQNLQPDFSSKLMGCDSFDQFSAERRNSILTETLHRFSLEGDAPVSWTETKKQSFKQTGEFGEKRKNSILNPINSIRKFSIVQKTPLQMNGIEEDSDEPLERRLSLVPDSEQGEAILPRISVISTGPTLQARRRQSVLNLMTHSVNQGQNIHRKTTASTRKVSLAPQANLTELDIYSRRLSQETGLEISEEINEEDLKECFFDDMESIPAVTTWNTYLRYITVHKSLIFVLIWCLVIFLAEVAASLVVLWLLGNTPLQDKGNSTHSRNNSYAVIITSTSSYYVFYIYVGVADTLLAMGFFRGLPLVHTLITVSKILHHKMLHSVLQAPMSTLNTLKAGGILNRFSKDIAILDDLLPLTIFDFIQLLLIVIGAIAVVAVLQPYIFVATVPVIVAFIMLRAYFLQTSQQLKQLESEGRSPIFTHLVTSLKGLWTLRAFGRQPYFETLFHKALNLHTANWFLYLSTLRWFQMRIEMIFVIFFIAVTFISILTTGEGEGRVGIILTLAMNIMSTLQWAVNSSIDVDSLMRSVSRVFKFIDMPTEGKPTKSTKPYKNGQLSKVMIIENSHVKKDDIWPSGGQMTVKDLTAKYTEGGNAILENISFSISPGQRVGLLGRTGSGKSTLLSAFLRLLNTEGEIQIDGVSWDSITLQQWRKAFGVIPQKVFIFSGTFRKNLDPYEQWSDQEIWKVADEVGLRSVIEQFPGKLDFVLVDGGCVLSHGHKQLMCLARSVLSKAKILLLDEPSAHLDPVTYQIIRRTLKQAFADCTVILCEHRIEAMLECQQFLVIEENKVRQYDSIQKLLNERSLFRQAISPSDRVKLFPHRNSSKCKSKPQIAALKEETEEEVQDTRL
Assay overview: Ussing chamber potentiation assay, G551D CFBE41o- monolayers
Type: cell-based
Value type: pEC50
Answers are plain numbers, as −log10 of the molar value.

get_value(item= `CC(C)(C)c1cc(C(C)(C)C)c(NC(=O)c2c[nH]c3ccccc3c2=O)cc1O` , readout=pEC50) returns 7.11

----------
Measurement target: WT-CFTR (Homo sapiens, UniProt P13569)
Sequence (P13569 whole entry): as the sequence (P13569 whole entry G551D) above, with D551G counted along it
Assay overview: Ussing chamber potentiation assay, WT CFBE41o- monolayers
Assay type: cell-based
Value type: EC50 (µM)
Answers are plain numbers, in µM.

get_value(item= CC(C)(C)c1cc(C(C)(C)C)c(NC(=O)c2c[nH]c3ccccc3c2=O)cc1O [VX-770, Ivacaftor] , readout=EC50) returns 0.0365
